- targetEntity: Ratio of Nucleoli Translocation and Cytoplasm, AR (gene 367) (UniProt P10275)
- Sequence (P10275 whole entry, looked up): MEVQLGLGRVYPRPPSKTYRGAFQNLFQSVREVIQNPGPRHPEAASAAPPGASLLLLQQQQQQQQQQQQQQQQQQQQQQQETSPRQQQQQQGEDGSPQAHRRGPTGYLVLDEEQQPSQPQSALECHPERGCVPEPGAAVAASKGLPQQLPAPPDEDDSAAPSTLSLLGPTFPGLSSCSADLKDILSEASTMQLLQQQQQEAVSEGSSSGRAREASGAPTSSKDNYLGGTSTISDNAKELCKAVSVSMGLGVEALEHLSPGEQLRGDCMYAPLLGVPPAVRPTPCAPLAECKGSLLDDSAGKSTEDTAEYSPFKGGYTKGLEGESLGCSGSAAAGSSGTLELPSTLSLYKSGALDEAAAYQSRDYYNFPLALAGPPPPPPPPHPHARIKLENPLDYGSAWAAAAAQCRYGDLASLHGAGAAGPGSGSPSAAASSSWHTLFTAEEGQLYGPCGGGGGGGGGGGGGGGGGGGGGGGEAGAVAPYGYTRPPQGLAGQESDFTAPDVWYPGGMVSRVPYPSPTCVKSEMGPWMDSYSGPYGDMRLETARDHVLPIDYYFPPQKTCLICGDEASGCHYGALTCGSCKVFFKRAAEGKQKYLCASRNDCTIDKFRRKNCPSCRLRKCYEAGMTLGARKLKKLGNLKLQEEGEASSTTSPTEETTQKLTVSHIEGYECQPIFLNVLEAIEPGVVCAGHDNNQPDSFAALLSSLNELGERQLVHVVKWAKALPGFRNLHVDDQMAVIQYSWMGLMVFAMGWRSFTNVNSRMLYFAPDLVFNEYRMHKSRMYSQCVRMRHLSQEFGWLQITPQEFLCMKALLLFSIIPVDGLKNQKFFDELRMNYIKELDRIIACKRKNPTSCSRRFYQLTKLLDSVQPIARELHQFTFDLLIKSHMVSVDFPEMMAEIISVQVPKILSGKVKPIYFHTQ
- testMethodNotes: UPITT_HCI_U2OS_AR_TIF2_Nucleoli_Cytoplasm_Ratio_Agonist: University of Pittsburgh U2OS Androgen Receptor-Transcriptional Intermediary Factor 2 (AR-TIF2) Agonism High Content Imaging Assay for Ratio of Nucleoli Translocation and Cytoplasm (AID 2284000);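 further: hits raise the red nucleolar to cytoplasm ratio above vehicle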
Inconclusive results are not listed. The source made the active and inactive calls. How the source made its calls: active means hit-call score of the fitted dose curve at least 0.9, where 1 is the maximum; inconclusive means response in the unintended direction; inactive means score below 0.9.
Possible outcomes: active, inactive

{"compound": "CCCCNC(=O)n1c(NC(=O)OC)nc2ccccc21", "targetEntity": "Ratio of Nucleoli Translocation and Cytoplasm, AR (gene 367) (UniProt P10275)", "categoryLabel": "inactive"}
{"compound": "CC(C)Oc1cc(-n2nc(C(C)(C)C)oc2=O)c(Cl)cc1Cl", "targetEntity": "Ratio of Nucleoli Translocation and Cytoplasm, AR (gene 367) (UniProt P10275)", "categoryLabel": "inactive"}
{"compound": "CCCC1COC(Cn2cncn2)(c2ccc(Cl)cc2Cl)O1 (centres undefined)", "targetEntity": "Ratio of Nucleoli Translocation and Cytoplasm, AR (gene 367) (UniProt P10275)", "categoryLabel": "active"}
{"compound": "N#Cc1cc(Br)c(O)c(Br)c1", "targetEntity": "Ratio of Nucleoli Translocation and Cytoplasm, AR (gene 367) (UniProt P10275)", "categoryLabel": "inactive"}
